These data points were gathered from patent US9957247B2.

Target: UniProt:P10408
Assay: biochemical
Settings: IC50, Translocation ATPase, Table 1
pIC50: −log10 of the molar value.
Property: pIC50; scope: individual compounds
readout_kind: pIC50

Oc1ccc2c(c1)Oc1cc(O)ccc1C2C1CCCC1 [SCA-41] | 4.82
CCCCCCC1c2ccc(O)cc2Oc2cc(O)ccc21 [SCA-50] | 4.22
CSc1nc(Sc2nnc(-c3cc(C(F)(F)F)cc(C(F)(F)F)c3)[nH]2)cc(Sc2nnc(-c3cc(C(F)(F)F)cc(C(F)(F)F)c3)[nH]2)n1 [SCA-21] | 4.70

###

Biological target: EcSecA (Escherichia coli, UniProt P10408)
Sequence (P0AG99 whole entry): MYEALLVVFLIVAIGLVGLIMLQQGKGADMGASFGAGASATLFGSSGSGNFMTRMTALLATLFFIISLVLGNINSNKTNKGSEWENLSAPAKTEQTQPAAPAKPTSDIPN
Sequence (P10408 whole entry): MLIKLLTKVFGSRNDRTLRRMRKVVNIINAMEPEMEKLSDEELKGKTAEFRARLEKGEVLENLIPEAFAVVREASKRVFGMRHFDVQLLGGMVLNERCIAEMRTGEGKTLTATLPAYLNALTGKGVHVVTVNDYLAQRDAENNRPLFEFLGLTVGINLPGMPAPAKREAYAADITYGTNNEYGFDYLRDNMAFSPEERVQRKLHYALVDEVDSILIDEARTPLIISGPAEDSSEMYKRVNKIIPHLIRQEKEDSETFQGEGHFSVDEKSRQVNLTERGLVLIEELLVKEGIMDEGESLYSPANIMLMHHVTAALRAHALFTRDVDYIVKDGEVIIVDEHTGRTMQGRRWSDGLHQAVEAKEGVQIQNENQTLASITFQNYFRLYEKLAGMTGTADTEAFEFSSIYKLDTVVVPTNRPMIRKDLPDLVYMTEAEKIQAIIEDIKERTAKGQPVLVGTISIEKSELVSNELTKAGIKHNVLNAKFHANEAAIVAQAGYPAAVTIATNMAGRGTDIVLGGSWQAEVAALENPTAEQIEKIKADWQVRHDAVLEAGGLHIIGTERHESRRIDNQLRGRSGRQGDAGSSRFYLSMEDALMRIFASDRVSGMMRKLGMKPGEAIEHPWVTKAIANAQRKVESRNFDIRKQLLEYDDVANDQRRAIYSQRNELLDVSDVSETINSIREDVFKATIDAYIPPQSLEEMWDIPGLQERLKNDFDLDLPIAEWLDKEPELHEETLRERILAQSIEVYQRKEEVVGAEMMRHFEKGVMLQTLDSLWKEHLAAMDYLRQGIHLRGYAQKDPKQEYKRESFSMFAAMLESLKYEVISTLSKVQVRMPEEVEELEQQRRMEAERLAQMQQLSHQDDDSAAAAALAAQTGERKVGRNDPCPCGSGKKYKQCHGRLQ
Sequence (P0AGA2 whole entry, further chain): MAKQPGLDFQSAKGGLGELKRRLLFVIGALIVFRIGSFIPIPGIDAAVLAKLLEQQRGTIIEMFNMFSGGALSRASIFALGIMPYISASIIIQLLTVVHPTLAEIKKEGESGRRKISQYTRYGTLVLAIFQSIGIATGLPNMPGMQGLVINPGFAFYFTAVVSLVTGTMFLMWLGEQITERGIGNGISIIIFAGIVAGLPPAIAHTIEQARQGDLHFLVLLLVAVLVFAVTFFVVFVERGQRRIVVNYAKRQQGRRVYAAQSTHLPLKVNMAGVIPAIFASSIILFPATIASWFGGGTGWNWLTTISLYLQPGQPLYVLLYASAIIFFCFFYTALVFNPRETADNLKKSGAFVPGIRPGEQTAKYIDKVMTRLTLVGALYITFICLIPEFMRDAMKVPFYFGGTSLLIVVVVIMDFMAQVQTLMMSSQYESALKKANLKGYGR
Sequence (P0AG96 whole entry, further chain): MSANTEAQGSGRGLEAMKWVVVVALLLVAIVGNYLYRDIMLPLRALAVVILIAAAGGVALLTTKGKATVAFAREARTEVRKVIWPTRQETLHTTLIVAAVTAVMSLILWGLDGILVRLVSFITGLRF
Conditions: read-out: IC50, membrane ATPase activity of EcSecA; Example 1
readout_kind: IC50

O.O=C([O-])c1ccccc1-c1c2cc(I)c(=O)c(I)c-2oc2c(I)c([O-])c(I)cc12.[Na+].[Na+] | 10 to 20 µM
